Test system: K-562 leukemia
Assay: NCI tumour cell line growth inhibition, 384-well format
Reported Metric: TGI

Form: compound = COc1ccc(S(=O)(=O)N2CCNCC2)cc1OC ; TGI = > 100 µM

Form: compound = S=C(NCc1ccc2c(c1)OCO2)N1CCN(c2ncnc3c2oc2ccccc23)CC1 ; TGI = > 100 µM

Form: compound = O=C(c1cc(Cc2n[nH]c(=O)c3ccccc23)ccc1F)N1CCN(C(=O)C2CC2)CC1 ; TGI = > 100 µM

Attention now turns to another entry.
Form: compound = C[C@H]1CN(C2COC2)CCN1c1ccc(Nc2cc(-c3ccnc(N4CCn5c(cc6c5CC(C)(C)C6)C4=O)c3CO)cn(C)c2=O)nc1 ; TGI = > 53.8 µM

----------
Tested on: SF-539 CNS
Assay: NCI tumour cell line growth inhibition, 384-well format; in the data active = GI50 below about 0.43 µM; inactive = the rest
// one of label 1 = active, label 0 = inactive, no free text

**Q:** # outcome recorded in this test, key = C[C@@H](NC(=O)c1ccc(F)cc1)c1ccc2c(c1)CCN2C(=O)C1CCOCC1
**A:** label 0

**Q:** # outcome recorded in this test, key = O=C(c1cc(Cc2n[nH]c(=O)c3ccccc23)ccc1F)N1CCN(C(=O)C2CC2)CC1
**A:** label 0

**Q:** # outcome recorded in this test, key = N#CCNC(=O)c1ccc(-c2ccnc(Nc3ccc(N4CCOCC4)cc3)n2)cc1
**A:** label 0

Please look at the following compound next.
**Q:** # outcome recorded in this test, key = COCCOCCOCCOCCOC(=O)OC[n+]1ccc(NC(=NCCCCCCOc2ccc(Cl)cc2)NC#N)cc1
**A:** label 1

----------
System: UACC-62 melanoma
Test: NCI tumour cell line growth inhibition, 384-well format
Reported Metric: GI50

Sample records with GI50:
Form: compound = N#CCNC(=O)c1ccc(-c2ccnc(Nc3ccc(N4CCOCC4)cc3)n2)cc1 ; GI50 = 3.57 µM

Form: compound = C[C@H]1CN(C2COC2)CCN1c1ccc(Nc2cc(-c3ccnc(N4CCn5c(cc6c5CC(C)(C)C6)C4=O)c3CO)cn(C)c2=O)nc1 ; GI50 = 14.6 µM

Form: compound = COc1ccc(COc2cc3oc(=O)c4cc(C(C)O)ccc4c3cc2OC)cc1 (stereo not given) ; GI50 = 8.49 µM

Form: compound = COCCOCCOCCOCCOC(=O)OC[n+]1ccc(NC(=NCCCCCCOc2ccc(Cl)cc2)NC#N)cc1 ; GI50 = < 0.01 µM

Attention now turns to another entry.
Form: compound = S=C(NCc1ccc2c(c1)OCO2)N1CCN(c2ncnc3c2oc2ccccc23)CC1 ; GI50 = > 100 µM

----------
Tested on: HOP-62 NSCLC
Assay: NCI tumour cell line growth inhibition, 384-well format
Reported Metric: TGI

Form: compound = C[C@H]1CN(C2COC2)CCN1c1ccc(Nc2cc(-c3ccnc(N4CCn5c(cc6c5CC(C)(C)C6)C4=O)c3CO)cn(C)c2=O)nc1 ; TGI = > 48.1 µM

Form: compound = COCCOCCOCCOCCOC(=O)OC[n+]1ccc(NC(=NCCCCCCOc2ccc(Cl)cc2)NC#N)cc1 ; TGI = < 0.01 µM

Form: compound = O=C(c1cc(Cc2n[nH]c(=O)c3ccccc23)ccc1F)N1CCN(C(=O)C2CC2)CC1 ; TGI = > 75.5 µM

Attention now turns to another entry.
Form: compound = C[C@@H](NC(=O)c1ccc(F)cc1)c1ccc2c(c1)CCN2C(=O)C1CCOCC1 ; TGI = > 100 µM

----------
Tested on: A549 NSCLC
Assay: NCI tumour cell line growth inhibition, 384-well format; in the data active = GI50 below about 0.43 µM; inactive = the rest
// one of active, inactive, no free text

**Q:** # outcome recorded in this test, key = S=C(NCc1ccc2c(c1)OCO2)N1CCN(c2ncnc3c2oc2ccccc23)CC1
**A:** inactive

Continuing:
**Q:** # outcome recorded in this test, key = COCCOCCOCCOCCOC(=O)OC[n+]1ccc(NC(=NCCCCCCOc2ccc(Cl)cc2)NC#N)cc1
**A:** active

**Q:** # outcome recorded in this test, key = COc1ccc(COc2cc3oc(=O)c4cc(C(C)O)ccc4c3cc2OC)cc1 (centres undefined)
**A:** inactive

**Q:** # outcome recorded in this test, key = C[C@H]1CN(C2COC2)CCN1c1ccc(Nc2cc(-c3ccnc(N4CCn5c(cc6c5CC(C)(C)C6)C4=O)c3CO)cn(C)c2=O)nc1
**A:** inactive

----------
Catalogue of compounds with associated TGI
Test system: KM12 colon
Assay: NCI tumour cell line growth inhibition, 384-well format

Form: compound = COc1ccc(COc2cc3oc(=O)c4cc(C(C)O)ccc4c3cc2OC)cc1 (stereo not given) ; TGI = > 100 µM

Form: compound = COc1ccc(S(=O)(=O)N2CCNCC2)cc1OC ; TGI = > 100 µM

Form: compound = COCCOCCOCCOCCOC(=O)OC[n+]1ccc(NC(=NCCCCCCOc2ccc(Cl)cc2)NC#N)cc1 ; TGI = < 0.01 µM

Form: compound = S=C(NCc1ccc2c(c1)OCO2)N1CCN(c2ncnc3c2oc2ccccc23)CC1 ; TGI = > 100 µM

Form: compound = O=C(c1cc(Cc2n[nH]c(=O)c3ccccc23)ccc1F)N1CCN(C(=O)C2CC2)CC1 ; TGI = > 100 µM

----------
Test system: IGROV1 ovarian
Test: NCI tumour cell line growth inhibition, 384-well format; in the data active = GI50 below about 0.43 µM; inactive = the rest
// one of yes (active), no (inactive), no free text

**Q:** # outcome recorded in this test, key = C[C@H]1CN(C2COC2)CCN1c1ccc(Nc2cc(-c3ccnc(N4CCn5c(cc6c5CC(C)(C)C6)C4=O)c3CO)cn(C)c2=O)nc1
**A:** no

**Q:** # outcome recorded in this test, key = O=C(c1cc(Cc2n[nH]c(=O)c3ccccc23)ccc1F)N1CCN(C(=O)C2CC2)CC1
**A:** no

**Q:** # outcome recorded in this test, key = C[C@@H](NC(=O)c1ccc(F)cc1)c1ccc2c(c1)CCN2C(=O)C1CCOCC1
**A:** no

Please look at the following compound next.
**Q:** # outcome recorded in this test, key = COCCOCCOCCOCCOC(=O)OC[n+]1ccc(NC(=NCCCCCCOc2ccc(Cl)cc2)NC#N)cc1
**A:** yes

----------
System: DU-145 prostate
Experiment: NCI tumour cell line growth inhibition, 384-well format; in the data active means GI50 below about 0.43 µM; inactive means the rest
// one of active, inactive, no free text

Worked examples, 3 compounds total:
**Q:** # outcome recorded in this test, key = N#CCNC(=O)c1ccc(-c2ccnc(Nc3ccc(N4CCOCC4)cc3)n2)cc1
**A:** inactive

**Q:** # outcome recorded in this test, key = COCCOCCOCCOCCOC(=O)OC[n+]1ccc(NC(=NCCCCCCOc2ccc(Cl)cc2)NC#N)cc1
**A:** active

**Q:** # outcome recorded in this test, key = COc1ccc(COc2cc3oc(=O)c4cc(C(C)O)ccc4c3cc2OC)cc1 (centres undefined)
**A:** inactive

Continuing:
**Q:** # outcome recorded in this test, key = COc1ccc(S(=O)(=O)N2CCNCC2)cc1OC
**A:** inactive

----------
System: COLO 205 colon
Assay: NCI tumour cell line growth inhibition, 384-well format
Reported Metric: GI50

Sample records with GI50:
Form: compound = S=C(NCc1ccc2c(c1)OCO2)N1CCN(c2ncnc3c2oc2ccccc23)CC1 ; GI50 = > 100 µM

Form: compound = COCCOCCOCCOCCOC(=O)OC[n+]1ccc(NC(=NCCCCCCOc2ccc(Cl)cc2)NC#N)cc1 ; GI50 = < 0.01 µM

Form: compound = O=C(c1cc(Cc2n[nH]c(=O)c3ccccc23)ccc1F)N1CCN(C(=O)C2CC2)CC1 ; GI50 = > 77 µM

Continuing:
Form: compound = N#CCNC(=O)c1ccc(-c2ccnc(Nc3ccc(N4CCOCC4)cc3)n2)cc1 ; GI50 = 4.24 µM

----------
Catalogue of molecules with associated TGI
Test system: M14 melanoma
Assay: NCI tumour cell line growth inhibition, 384-well format

Sample records with TGI:
Form: molecule = C[C@@H](NC(=O)c1ccc(F)cc1)c1ccc2c(c1)CCN2C(=O)C1CCOCC1 ; TGI = > 100 µM

Form: molecule = N#CCNC(=O)c1ccc(-c2ccnc(Nc3ccc(N4CCOCC4)cc3)n2)cc1 ; TGI = 51.2 µM

Form: molecule = COCCOCCOCCOCCOC(=O)OC[n+]1ccc(NC(=NCCCCCCOc2ccc(Cl)cc2)NC#N)cc1 ; TGI = 0.0189 µM

Attention now turns to another entry.
Form: molecule = C[C@H]1CN(C2COC2)CCN1c1ccc(Nc2cc(-c3ccnc(N4CCn5c(cc6c5CC(C)(C)C6)C4=O)c3CO)cn(C)c2=O)nc1 ; TGI = > 54.7 µM

----------
Catalogue of compounds with associated TGI
Tested on: T-47D breast
Test: NCI tumour cell line growth inhibition, 384-well format
Provide the reading as a plain figure in µM.

Form: compound = S=C(NCc1ccc2c(c1)OCO2)N1CCN(c2ncnc3c2oc2ccccc23)CC1 ; TGI = 8.23

Attention now turns to another entry.
Form: compound = N#CCNC(=O)c1ccc(-c2ccnc(Nc3ccc(N4CCOCC4)cc3)n2)cc1 ; TGI = 39.9

The measurements presented in this section are drawn from PubChem BioAssay (NCI).
